target_under_test: CFTR (Homo sapiens, UniProt P13569)
Sequence (P13569 with tags, fused parts or gaps DEL508-508): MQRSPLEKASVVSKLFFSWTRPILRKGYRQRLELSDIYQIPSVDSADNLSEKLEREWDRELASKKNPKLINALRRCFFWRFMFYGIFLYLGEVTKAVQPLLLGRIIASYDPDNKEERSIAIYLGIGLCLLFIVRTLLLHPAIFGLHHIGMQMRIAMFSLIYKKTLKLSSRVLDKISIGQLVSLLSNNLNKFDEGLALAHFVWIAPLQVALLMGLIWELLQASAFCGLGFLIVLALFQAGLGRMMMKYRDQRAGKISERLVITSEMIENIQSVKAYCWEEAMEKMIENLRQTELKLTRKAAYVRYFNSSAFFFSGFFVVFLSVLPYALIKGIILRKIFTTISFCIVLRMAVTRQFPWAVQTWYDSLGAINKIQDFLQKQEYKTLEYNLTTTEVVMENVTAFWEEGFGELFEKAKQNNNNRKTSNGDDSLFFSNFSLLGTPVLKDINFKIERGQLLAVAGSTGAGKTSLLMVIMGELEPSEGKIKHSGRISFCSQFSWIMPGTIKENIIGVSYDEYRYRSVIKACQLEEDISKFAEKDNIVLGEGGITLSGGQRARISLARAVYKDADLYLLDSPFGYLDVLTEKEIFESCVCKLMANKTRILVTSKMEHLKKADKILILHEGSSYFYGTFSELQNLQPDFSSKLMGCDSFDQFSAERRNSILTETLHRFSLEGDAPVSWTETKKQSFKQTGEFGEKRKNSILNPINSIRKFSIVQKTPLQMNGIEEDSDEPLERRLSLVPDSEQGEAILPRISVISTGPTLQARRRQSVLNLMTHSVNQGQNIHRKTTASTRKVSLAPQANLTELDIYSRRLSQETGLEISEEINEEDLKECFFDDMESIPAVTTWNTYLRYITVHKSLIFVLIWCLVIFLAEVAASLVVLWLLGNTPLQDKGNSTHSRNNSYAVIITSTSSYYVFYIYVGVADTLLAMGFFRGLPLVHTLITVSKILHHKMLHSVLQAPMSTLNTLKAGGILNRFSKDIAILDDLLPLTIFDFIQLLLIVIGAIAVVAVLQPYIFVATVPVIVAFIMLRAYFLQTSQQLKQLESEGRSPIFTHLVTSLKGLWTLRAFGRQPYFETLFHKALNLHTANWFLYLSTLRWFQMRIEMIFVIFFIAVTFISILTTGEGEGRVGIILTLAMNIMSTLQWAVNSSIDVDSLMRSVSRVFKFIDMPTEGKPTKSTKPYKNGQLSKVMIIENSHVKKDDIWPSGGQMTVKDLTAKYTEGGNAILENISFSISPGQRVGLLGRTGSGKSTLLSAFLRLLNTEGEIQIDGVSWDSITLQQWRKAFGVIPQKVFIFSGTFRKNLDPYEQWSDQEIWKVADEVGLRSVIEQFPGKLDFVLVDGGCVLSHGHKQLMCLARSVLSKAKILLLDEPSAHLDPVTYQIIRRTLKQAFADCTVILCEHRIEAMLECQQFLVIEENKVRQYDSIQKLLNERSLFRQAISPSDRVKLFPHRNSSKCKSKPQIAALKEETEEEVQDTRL
assay_summary: Membrane Potential Dye, Enteroid Assay A
Assay type: cell-based
assay_conditions: Enteroid Assay A
reported_property: Ent. A Max Activity

In [3]: df
Out[3]:
                                   compound                    target_under_test              result
0  Cc1cccc(C)c1-c1cc2nc(n1)NS(=O)(=O)c1cccc(c1)C(=O)N[C@H]1CCCC[C@H]1O2  CFTR (Homo sapiens, UniProt P13569)   ++ (++ is 30-60%)
1  Cc1cccc(C)c1-c1cc2nc(n1)NS(=O)(=O)c1cccc(c1)C(=O)NCC(CC(C)C)O2 (stereo not shown)  CFTR (Homo sapiens, UniProt P13569)  +++ (+++ is >600%)
2  Cc1cccc(C)c1-c1cc2nc(n1)NS(=O)(=O)c1cccc(c1)C(=O)NC(C(C)C)CO2 (stereo not shown)  CFTR (Homo sapiens, UniProt P13569)   ++ (++ is 30-60%)
3  Cc1cccc(C)c1-c1cc2nc(n1)NS(=O)(=O)c1cccc(c1)C(=O)NC[C@@H](Cc1ccccc1)O2  CFTR (Homo sapiens, UniProt P13569)  +++ (+++ is >600%)
4  Cc1cc2cc(c1)S(=O)(=O)Nc1nc(cc(-c3c(C)cccc3C)n1)OC[C@@H](CC1CCCCC1)NC2=O  CFTR (Homo sapiens, UniProt P13569)  +++ (+++ is >600%)
5  Cc1cccc(C)c1-c1cc2nc(n1)NS(=O)(=O)c1cccc(c1)C(=O)NCC1(CCN(Cc3cccc(OC(F)(F)F)c3F)CC1)CO2  CFTR (Homo sapiens, UniProt P13569)   ++ (++ is 30-60%)
6  Cc1cccc(C)c1-c1cc2nc(n1)NS(=O)(=O)c1cccc(c1)C(=O)NC1CC(CN(CCC(C)(C)C)C1)O2 (single isomer, unassigned) [Compound 79]  CFTR (Homo sapiens, UniProt P13569)   ++ (++ is 30-60%)
